Provenance of the data: patent US11466007B2

- Measured target: human 5-HT1A receptor (Homo sapiens (Human), UniProt P08908)
- Sequence (P08908 whole entry): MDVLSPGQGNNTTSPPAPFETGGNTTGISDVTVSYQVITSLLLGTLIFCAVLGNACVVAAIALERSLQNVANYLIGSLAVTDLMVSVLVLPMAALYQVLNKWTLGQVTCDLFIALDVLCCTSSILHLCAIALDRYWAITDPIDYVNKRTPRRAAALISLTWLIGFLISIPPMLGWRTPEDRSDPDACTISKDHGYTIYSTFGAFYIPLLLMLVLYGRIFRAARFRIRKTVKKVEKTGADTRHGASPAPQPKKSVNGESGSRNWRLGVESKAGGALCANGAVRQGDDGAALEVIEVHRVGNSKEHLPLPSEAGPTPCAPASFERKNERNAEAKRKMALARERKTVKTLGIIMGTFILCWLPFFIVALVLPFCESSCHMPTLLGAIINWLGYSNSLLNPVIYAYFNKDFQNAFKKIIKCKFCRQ
- Experiment summary: Test 2: agonist activity for human 5-HT1A receptor ([35S]GTPγS binding)
- Applied conditions: [35S]GTPγS binding, CHO cell membrane fraction expressing human 5-HT1A receptor
Exercise: state measured EC50 for each of the molecules provided.
Answer by giving the amount and then stating its unit.

COc1ccc2c(n1)C(=O)N(CCN1CCN(c3noc4ccccc34)CC1)CC2 [Example 186]; 0.097 µM

Please turn your attention to the following entry.
Prompt line: Which measured EC50 value corresponds to COc1ccc2c(n1)C(=O)N(CCN1CCC(c3noc4ccccc34)CC1)CC2 [Example 187] ?
Response line: 0.0382 µM
